Tested on: P12-Ichikawa
MEASUREMENT_NOTES: cell viability relative to DMSO control; higher = less cytotoxic
RUN_PARAMETERS: HPLM + 10% dialyzed FBS; 48 h; 0.0211 µM
OUTCOME_MEASURE: cell viability (%)
Kindly provide the numeric value in % only, without the unit symbol.

Q. # returns recorded cell viability (system: P12-Ichikawa) for COC[C@H](NC(=O)c1cnc(C)s1)C(=O)N[C@@H](COC)C(=O)N[C@@H](Cc1ccccc1)C(=O)[C@@]1(C)CO1
A. 95

Q. Let us now turn to CN(N=O)C(=O)N[C@H]1C(O)OC(CO)[C@@H](O)[C@@H]1O (some centres undefined)
A. 84.2

Q. Repeat for the following compound: C[C@@H]1C[C@H]2[C@@H]3\C=C(C)/C4=C/C5=C(C[C@]4(C)[C@H]3[C@@H](O)C[C@]2(C)[C@@]1(O)C(=O)COC(C)=O)C=N[N]5C6=CC=CC=C6
A. 91.8

Q. Lookup CCOC(=O)Nc1ccc(NCc2ccc(F)cc2)cc1N
A. 121

----------
System: SEM cells
MEASUREMENT_NOTES: cell viability relative to DMSO control; higher = less cytotoxic
RUN_PARAMETERS: RPMI 5 mM glucose + 10% dialyzed FBS; 48 h; 1.71 µM
cell viability overview
The response must be a number in % with no trailing unit.

Below are worked cases with known answers.
COMPOUND | OUTCOME_MEASURE | MEASUREMENT_UNIT | RESULT_NUMBER
C[C@H](NC(=O)C(=O)Nc1ccccc1C(C)(C)C)C(=O)N[C@@H](CC(=O)O)C(=O)COc1c(F)c(F)cc(F)c1F | cell viability | % | 109
C1Cc2[nH]nc(-c3nn[nH]n3)c2C1 | cell viability | % | 141
O=C(NC1CCNCC1)c1n[nH]cc1NC(=O)c1c(Cl)cccc1Cl | cell viability | % | 24.6
CSC1=CC(=CC=C1)NC2=NC3=C(C=N2)/C=C(C(=O)N3C)/C4=C(Cl)C=CC=C4Cl | cell viability | % | 84.9
CCC[C@@H]1C[C@@H](C(=O)N[C@@H]([C@H]2O[C@H](SC)[C@H](O)[C@@H](O)[C@H]2O)[C@@H](C)O)N(C)C1.Cl | cell viability | % | 137

Q. Fill in: cell viability of CCCCN(CCCC)CCC(O)c1cc2c(Cl)cc(Cl)cc2c2cc(C(F)(F)F)ccc12 (configuration not stated) is ___
A. 48.3

Q. How about COc1ccc(CCN2CCN(CCCc3ccccc3)CC2)cc1OC ?
A. 148

----------
System: SEM cells
MEASUREMENT_NOTES: cell viability relative to DMSO control; higher = less cytotoxic
RUN_PARAMETERS: RPMI 5 mM glucose + 10% dialyzed FBS; 48 h; 0.19 µM
OUTCOME_MEASURE: cell viability (%)
Numbers only here, please. The scale is %.

Q. Return reported cell viability; argument: COc1ccc(Cc2nccc3cc(OC)c(OC)cc23)cc1OC
A. 109

Q. For OC[C@H]1O[C@@H](Oc2ccc(O)cc2)[C@H](O)[C@@H](O)[C@@H]1O then?
A. 101

Q. Queued: CC[C@H]1OC(=O)[C@H](C)[C@@H](O[C@H]2C[C@@](C)(OC)[C@@H](O)[C@H](C)O2)[C@H](C)[C@@H](O[C@@H]2O[C@@H](C)C[C@H](N(C)C)[C@H]2O)[C@](C)(O)C[C@@H](C)C(=O)[C@H](C)[C@@H](O)[C@]1(C)O
A. 94.5

----------
Tested on: NOMO1
MEASUREMENT_NOTES: cell viability relative to DMSO control; higher = less cytotoxic
RUN_PARAMETERS: RPMI 5 mM glucose + 10% dialyzed FBS; 48 h; 0.00702 µM
OUTCOME_MEASURE: cell viability (%)
Give your result in % as a bare value.

Example cases with answers are listed next.
RECORD_SMILES | MEASUREMENT_UNIT | cell viability
Cl.c1cnc2cc3c(cc2n1)C1CNCC3C1 | % | 105
Cc1cc2c(C(C)C)c(O)c(O)c(C=O)c2c(O)c1-c1c(C)cc2c(C(C)C)c(O)c(O)c(C=O)c2c1O | % | 114
C=C(C)[C@@H]1CC[C@]2(C)CC[C@]3(C)[C@H](CC[C@@H]4[C@@]5(C)CC[C@H](O)C(C)(C)[C@@H]5CC[C@]43C)[C@@H]12 | % | 111
Cc1nc(Nc2ncc(C(=O)Nc3c(C)cccc3Cl)s2)cc(N2CCN(CCO)CC2)n1 | % | 102
Cc1cc(O)c2c3c4c(cc(O)c13)C(C)(C)C(=O)c1c(O)cc(O)c(c1-4)C2=O | % | 118

Q. What value of cell viability has been recorded for this entry: C#CCN(C)[C@H](C)Cc1ccccc1
A. 84.2

Q. Similarly, Cc1ccc(NC(=O)C2(c3ccc4c(c3)OC(F)(F)O4)CC2)nc1-c1cccc(C(=O)O)c1 ?
A. 92.1

Q. Again, but for O=C1Nc2ccccc2/C1=C1\Nc2ccccc2C1=O
A. 109

Q. Same thing, different compound: NC(=O)c1ccc(-c2nc(-c3ccc4c(c3)OCCO4)c(-c3ccccn3)[nH]2)cc1
A. 119

Q. Check CO[C@H]1C[C@@H]2CC[C@@H](C)[C@@](O)(O2)C(=O)C(=O)N2CCCC[C@H]2C(=O)O[C@H]([C@H](C)C[C@@H]2CC[C@@H](OP(C)(C)=O)[C@H](OC)C2)CC(=O)[C@H](C)/C=C(\C)[C@@H](O)[C@@H](OC)C(=O)[C@H](C)C[C@H](C)/C=C/C=C/C=C/1C too.
A. 118

----------
Entries and their cell viability values follow.
Test system: SEM cells
MEASUREMENT_NOTES: cell viability relative to DMSO control; higher = less cytotoxic
RUN_PARAMETERS: RPMI 5 mM glucose + 10% dialyzed FBS; 48 h; 46.1 µM
Quick reminder: number only, in %, skip the unit.

Below are worked cases with known answers.
COMPOUND | RESULT_NUMBER
CC(=O)N1CCN(c2ccc(OCc3nn(C)c(C)c3-c3cccc4c(CCCOc5cc(C)c(Cl)c(C)c5)c(C(=O)O)n(Cc5cccnc5)c34)cc2)CC1 | 1.96
CCCCCCCCCCCC(CC1OC(=O)C1CCCCCC)OC(=O)C(CC(C)C)NC=O (centres undefined) | 7.62
Clc1ccc(C2(c3ccc(-c4cn[nH]c4)cc3)CCNCC2)cc1 | 46.5

Would you kindly look at the next entry?
Q. State its cell viability on SEM cells: NC1CCC(N[C@@H]2C[C@H]2c2ccccc2)CC1 (some centres undefined)
A. 74

----------
Test system: P12-Ichikawa
MEASUREMENT_NOTES: cell viability relative to DMSO control; higher = less cytotoxic
RUN_PARAMETERS: RPMI 5 mM glucose + 10% dialyzed FBS; 48 h; 0.0211 µM
OUTCOME_MEASURE: cell viability (%)
Supply the numeric figure in %, leaving out any unit text.

RECORD_SMILES | RESULT_NUMBER
Cc1ccc(-n2nc(C(C)(C)C)cc2NC(=O)Nc2ccc(OCCN3CCOCC3)c3ccccc23)cc1 | 121
Clc1ccc(C2(c3ccc(-c4cn[nH]c4)cc3)CCNCC2)cc1 | 87.5
O=C1Nc2ccccc2/C1=C1\Nc2ccccc2C1=O | 91.2

Q. Which cell viability reading was recorded for the molecule C[C@H]([C@H](O)CCC(C)(C)O)[C@H]1CC[C@@]2(O)C/3=C/C(=O)[C@@H]4C[C@@H](O)[C@@H](O)C[C@]4(C)[C@H]3CC[C@]12C ?
A. 124

Q. Next molecule up: COc1cc2nccc(Oc3ccc(NC(=O)Nc4ccc(F)cc4F)c(F)c3)c2cc1OC
A. 89.9

Q. Please do the same for O=C(O)[C@H](Cc1c[nH]c2ccccc12)N1C(=O)c2ccccc2C1=O as well.
A. 102

----------
compounds and their reported cell viability
System: NOMO1
MEASUREMENT_NOTES: cell viability relative to DMSO control; higher = less cytotoxic
RUN_PARAMETERS: RPMI 5 mM glucose + 10% FBS; 48 h; 0.0211 µM
Respond with a number, then the unit of measure.

// worked examples, cell viability included
COMPOUND | SUBJECT_OF_TEST | cell viability
C[C@@H](c1ncncc1F)[C@](O)(Cn1cncn1)c1ccc(F)cc1F | NOMO1 | 103%
CCOC(=O)Nc1ccc(NCc2ccc(F)cc2)cc1N | NOMO1 | 116%
Fc1cc(-c2cccc3ncc(-c4cnn(C5CCNCC5)c4)nc23)cc(F)c1CN1CCOCC1 | NOMO1 | 102%

Now look at this entry.
Q. So what cell viability did C[N]1C=NC=C1[C@@](N)(C2=CC=C(Cl)C=C2)C3=CC=C4N(C)C(=O)\C=C(\C5=CC=CC(=C5)Cl)C4=C3 get with NOMO1?
A. 93.2%

Source of measurements: the supplement of paper PMC11451515
